Hello, the source for this data is patent US8796268B2, in case you need it.

- target-under-test: Human PI3K delta (Homo sapiens, UniProt O00329)
- Construct: His (N); host or cells: SF9 insect cells (baculovirus)
- Sequence (O00329 whole entry): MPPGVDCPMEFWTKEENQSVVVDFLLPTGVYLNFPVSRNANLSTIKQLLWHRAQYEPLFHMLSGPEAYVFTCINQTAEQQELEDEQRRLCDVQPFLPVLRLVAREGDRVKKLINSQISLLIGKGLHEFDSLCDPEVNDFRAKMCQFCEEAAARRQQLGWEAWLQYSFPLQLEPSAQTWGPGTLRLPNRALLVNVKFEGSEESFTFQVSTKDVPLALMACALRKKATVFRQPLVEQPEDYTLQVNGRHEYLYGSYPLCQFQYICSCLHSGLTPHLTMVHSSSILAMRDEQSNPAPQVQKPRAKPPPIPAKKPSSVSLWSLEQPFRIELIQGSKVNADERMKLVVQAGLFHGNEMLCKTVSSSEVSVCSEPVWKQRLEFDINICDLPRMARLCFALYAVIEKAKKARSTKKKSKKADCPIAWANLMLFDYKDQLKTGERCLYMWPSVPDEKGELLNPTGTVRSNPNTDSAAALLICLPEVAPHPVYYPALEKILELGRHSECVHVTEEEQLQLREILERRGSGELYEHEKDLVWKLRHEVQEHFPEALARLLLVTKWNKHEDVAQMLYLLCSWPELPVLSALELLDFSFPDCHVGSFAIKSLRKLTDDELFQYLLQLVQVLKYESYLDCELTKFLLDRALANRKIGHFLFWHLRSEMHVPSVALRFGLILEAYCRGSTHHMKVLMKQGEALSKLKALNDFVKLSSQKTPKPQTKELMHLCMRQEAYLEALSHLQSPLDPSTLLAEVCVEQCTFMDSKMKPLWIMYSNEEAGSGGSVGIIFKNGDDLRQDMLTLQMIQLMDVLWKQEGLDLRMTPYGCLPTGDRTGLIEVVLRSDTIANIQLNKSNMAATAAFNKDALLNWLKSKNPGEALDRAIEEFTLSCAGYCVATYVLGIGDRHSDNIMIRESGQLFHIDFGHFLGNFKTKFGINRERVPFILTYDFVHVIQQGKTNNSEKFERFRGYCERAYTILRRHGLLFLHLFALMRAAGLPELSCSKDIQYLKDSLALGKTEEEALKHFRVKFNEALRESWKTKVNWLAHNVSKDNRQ
- Sequence (P27986 whole entry partner): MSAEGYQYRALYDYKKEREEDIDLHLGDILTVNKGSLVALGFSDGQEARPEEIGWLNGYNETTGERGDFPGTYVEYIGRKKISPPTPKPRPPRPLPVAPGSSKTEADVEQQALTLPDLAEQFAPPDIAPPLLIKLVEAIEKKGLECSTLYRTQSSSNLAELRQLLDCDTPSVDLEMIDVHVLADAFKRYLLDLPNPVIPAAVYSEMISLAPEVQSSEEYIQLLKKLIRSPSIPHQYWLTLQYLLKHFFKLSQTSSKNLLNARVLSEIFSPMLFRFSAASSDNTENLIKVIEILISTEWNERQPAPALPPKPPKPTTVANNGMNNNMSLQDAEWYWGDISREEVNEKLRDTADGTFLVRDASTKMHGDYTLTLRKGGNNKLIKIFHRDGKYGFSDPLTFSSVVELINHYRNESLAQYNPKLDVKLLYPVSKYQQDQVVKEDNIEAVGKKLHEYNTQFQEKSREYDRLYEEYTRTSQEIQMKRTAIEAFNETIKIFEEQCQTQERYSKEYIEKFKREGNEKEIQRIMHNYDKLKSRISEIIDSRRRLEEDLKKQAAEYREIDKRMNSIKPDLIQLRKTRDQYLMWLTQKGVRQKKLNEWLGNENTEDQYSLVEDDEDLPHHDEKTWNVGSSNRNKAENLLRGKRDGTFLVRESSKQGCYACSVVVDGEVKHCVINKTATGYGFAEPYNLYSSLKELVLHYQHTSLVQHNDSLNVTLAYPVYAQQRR
- experiment-description: Human PI3K delta enzyme assay (HTRF)
- Format: biochemical
- recorded-conditions: concentration not given; b1389 states 1.0 μM for PI3K δ and γ
measure-name: p110 delta Percent Inhibition (%)

Reference set, count: 10
[[record]]
compound = "CN(C)C(c1ccc(Cl)c(Cl)c1)c1c(C(=O)O)sc(N2CCOCC2)c1C#N (centres unmarked) [Compound 336]"
u = "%"
test_value = 49

[[record]]
compound = "CC(=O)Nc1cc(-c2cc(C(c3ccc(Cl)cc3)N3CCC[C@H]3CO)c(-c3nnc[nH]3)s2)ccn1 (single isomer, unassigned)"
u = "%"
test_value = 100

[[record]]
compound = "COc1cc(C(O)c2cc(-c3ccnnc3)sc2-c2nnc[nH]2)c(F)cc1Cl (centres unmarked) [Compound 282]"
u = "%"
test_value = 64

[[record]]
compound = "COC(c1ccc2ccccc2c1)c1c(C(=O)O)sc(N2CCOCC2)c1C#N (centres unmarked) [Compound 337]"
u = "%"
test_value = 46

[[record]]
compound = "N#Cc1c(N2CCOCC2)sc(C(=O)O)c1C(CCF)c1ccc2ccccc2c1 (centres unmarked) [Compound 365]"
u = "%"
test_value = 112

[[record]]
compound = "N#Cc1c(N2CCOCC2)sc(C(=O)O)c1C(F)c1ccc2ccccc2c1 (centres unmarked)"
u = "%"
test_value = 101

[[record]]
compound = "CC(=O)Nc1cc(-c2cc(C(c3ccc(Cl)cc3)N3CC(N(C)C)C3)c(-c3nnc[nH]3)s2)ccn1 (centres unmarked)"
u = "%"
test_value = 108

[[record]]
compound = "COc1cc(C(O)c2cc(-c3ccnc(Cl)c3)sc2-c2nnc[nH]2)c(F)cc1Cl (centres unmarked) [Compound 278]"
u = "%"
test_value = 83

[[record]]
compound = "COC(c1ccc2ccccc2c1)c1c(C(=O)O)sc(N2CCOCC2)c1C#N (centres unmarked) [Compound 368]"
u = "%"
test_value = 113

[[record]]
compound = "N#Cc1c(N2CCOCC2)sc(C(=O)O)c1C(CCF)c1ccc2ccccc2c1 (centres unmarked) [Compound 322]"
u = "%"
test_value = 67


a = CC(c1ccc(Cl)c(Cl)c1)c1c(C(=O)O)sc(N2CCOCC2)c1C#N (centres unmarked) [Compound 321]
b = NCc1c[nH]c(-c2sc(-c3ccncc3)nc2Cc2ccc(Cl)cc2)n1
Returns the identifier with the smallest measured p110 delta Percent Inhibition among a and b . Lab note: record the label of whichever item you select.
b
